# assayed-system: Ubiquitin-conjugating enzyme E2 N (Homo sapiens, UniProt P61088)
# Sequence (P61088 whole entry): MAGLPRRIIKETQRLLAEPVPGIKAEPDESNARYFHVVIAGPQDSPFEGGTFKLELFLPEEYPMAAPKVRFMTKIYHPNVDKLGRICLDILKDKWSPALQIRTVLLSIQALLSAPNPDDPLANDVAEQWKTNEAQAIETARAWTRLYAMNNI
# Type: functional
Activity calls are given as the source filed them.
Outcome codes: active, inactive

>  <compound>
O=C(NCCCN1CCOCC1)c1cc2c3ccccc3nc-2c(-c2cccc(Br)c2)[nH]1

>  <assayed-system>
Ubiquitin-conjugating enzyme E2 N (Homo sapiens, UniProt P61088)

>  <group-label>
inactive

$$$$
>  <compound>
CC(Oc1cccc(Br)c1)C(=O)NNC(=O)c1ccccn1 (centres undefined)

>  <assayed-system>
Ubiquitin-conjugating enzyme E2 N (Homo sapiens, UniProt P61088)

>  <group-label>
inactive

$$$$
>  <compound>
Cc1ccc(C(C(=O)NC(C)(C)C)N(Cc2ccccc2)C(=O)c2snc(C(N)=O)c2N)o1 (centres undefined)

>  <assayed-system>
Ubiquitin-conjugating enzyme E2 N (Homo sapiens, UniProt P61088)

>  <group-label>
inactive

$$$$
>  <compound>
Cc1cc(NC(=O)Cn2c(=O)n(CCCCC(=O)NC3CCN(Cc4ccccc4)CC3)c(=O)c3ccccc32)[nH]n1

>  <assayed-system>
Ubiquitin-conjugating enzyme E2 N (Homo sapiens, UniProt P61088)

>  <group-label>
inactive

$$$$
>  <compound>
CC(C)=CCc1c(O)cc(O)c2c(=O)c(O[C@@H]3O[C@@H](C)[C@H](O)[C@@H](O)[C@H]3O)c(-c3ccc(O)cc3)oc12

>  <assayed-system>
Ubiquitin-conjugating enzyme E2 N (Homo sapiens, UniProt P61088)

>  <group-label>
inactive

$$$$
>  <compound>
C#CCOCCOCCOCCNc1nc(N2CCN(C(=O)CCCCCCCCCCNC(=O)[C@@H](CCSC)n3cc(CCO)nn3)CC2)nc(N2CCN(C(=O)CCCCCCCCCCNC(=O)[C@H]([C@@H](C)CC)n3cc(CCCCN=C(N)N)nn3)CC2)n1

>  <assayed-system>
Ubiquitin-conjugating enzyme E2 N (Homo sapiens, UniProt P61088)

>  <group-label>
active

$$$$
>  <compound>
C#CCOCCOCCOCCNc1nc(N2CCN(C(=O)CCCCCCCCCCNC(=O)[C@H](CCCCN)n3cc(C)nn3)CC2)nc(N2CCN(C(=O)CCCCCCCCCCNC(=O)[C@@H]([C@H](C)O)n3cc(C)nn3)CC2)n1

>  <assayed-system>
Ubiquitin-conjugating enzyme E2 N (Homo sapiens, UniProt P61088)

>  <group-label>
active

$$$$
>  <compound>
Cc1ccc(CN2CCC(CNC(=O)c3ccc(NC(=O)C4=CSCCO4)cc3)CC2)cc1

>  <assayed-system>
Ubiquitin-conjugating enzyme E2 N (Homo sapiens, UniProt P61088)

>  <group-label>
active

$$$$
>  <compound>
C#CCOCCOCCOCCNc1nc(N2CCN(C(=O)CCCCCCCCCCNC(=O)[C@H](CO)n3cc(CCCSC)nn3)CC2)nc(N2CCN(C(=O)CCCCCCCCCCNC(=O)[C@H](CCCN=C(N)N)n3cc(C[C@@H](C)CC)nn3)CC2)n1

>  <assayed-system>
Ubiquitin-conjugating enzyme E2 N (Homo sapiens, UniProt P61088);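 further: Dose-response confirmation in a TR-FRET assay detecting UBC13-driven polyubiquitin chain formation, inhibition measured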

>  <group-label>
active

$$$$

====

# assayed-system: Microphthalmia-associated transcription factor (Homo sapiens, UniProt O75030)
# Sequence (O75030 whole entry): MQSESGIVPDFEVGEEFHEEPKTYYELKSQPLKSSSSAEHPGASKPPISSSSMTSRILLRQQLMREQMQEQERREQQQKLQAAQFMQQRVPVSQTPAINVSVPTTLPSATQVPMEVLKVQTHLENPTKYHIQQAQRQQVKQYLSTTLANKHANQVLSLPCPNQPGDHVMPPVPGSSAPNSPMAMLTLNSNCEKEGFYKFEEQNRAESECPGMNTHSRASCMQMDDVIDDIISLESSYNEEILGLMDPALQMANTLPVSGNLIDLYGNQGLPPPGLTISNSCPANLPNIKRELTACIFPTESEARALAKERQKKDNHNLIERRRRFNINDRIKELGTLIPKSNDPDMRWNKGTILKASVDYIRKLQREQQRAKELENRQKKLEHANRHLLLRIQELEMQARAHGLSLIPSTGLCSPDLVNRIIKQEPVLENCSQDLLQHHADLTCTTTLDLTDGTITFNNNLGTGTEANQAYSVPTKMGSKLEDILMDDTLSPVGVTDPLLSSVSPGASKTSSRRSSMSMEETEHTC
# assay-explanation: reducers of TRPM1 reporter luminescence, concentration series – cell-based, SK-MEL-5, cherry-picked, set 3, MITF inhibitor project, dose response (AID 493073);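 further: SK-MEL-5 melanoma cells with luciferase driven by the MITF target TRPM1 promoter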
# Format: functional
Active and inactive are the calls of the source.
measured-parameter: AC50

>  <molecule>
CC(Oc1cccc(Br)c1)C(=O)NNC(=O)c1ccccn1 (stereo not given)

>  <observed-value>
7.18 µM (active)

$$$$
>  <molecule>
CC(=O)OCCCNc1cc(Sc2ccc(Cl)cc2)c2nonc2c1[N+](=O)[O-]

>  <observed-value>
10.9 µM (active)

$$$$
>  <molecule>
O=C(CNC(=O)c1cccc(F)c1)N/N=C/c1ccc([N+](=O)[O-])s1

>  <observed-value>
7.45 µM (active)

$$$$
>  <molecule>
CC(=NNC(=S)N1CCN(c2ccccn2)CC1)c1nccs1

>  <observed-value>
0.681 µM (active)

$$$$
>  <molecule>
COCCNC(=O)/C(C#N)=C/c1cccc(/C=C(\C#N)C(=O)NCCOC)c1

>  <observed-value>
12.7 µM (active)

$$$$
